Kindly supply the reported yeast fitness values for the records listed here.
B1: tRNA (parent)
chain: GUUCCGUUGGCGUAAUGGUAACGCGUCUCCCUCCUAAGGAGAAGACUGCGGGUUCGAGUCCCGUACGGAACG

Variants of: B1
Assay: yeast fitness relative to wild type (ratio to wild type); higher = fitter; tRNA-Arg(CCU), competitive growth, 37 C, YPD
Variants at the floor of the assay were thinned out.
Enter a number only.

Form: variant = U7G G48A A69C ; yeast fitness = 0.697

Form: variant = U2A C4U U8G C55G ; yeast fitness = 0.513

Form: variant = C46U A69C ; yeast fitness = 0.976

Form: variant = C49U G58A ; yeast fitness = 0.948

Form: variant = C30U ; yeast fitness = 1.01

Form: variant = C24U G39A A57C ; yeast fitness = 0.727

Form: variant = A40U G50C ; yeast fitness = 0.726

Form: variant = C11A G18A A36G A42C C66U ; yeast fitness = 0.658

Form: variant = C11U C22U C66U ; yeast fitness = 0.517

Form: variant = G6A C11U A69U ; yeast fitness = 0.707

Form: variant = C31U A42G C62U A69C ; yeast fitness = 0.542

Form: variant = U19G A20U C27A ; yeast fitness = 0.587

Form: variant = G9A U28G A40C A42G ; yeast fitness = 0.76

Form: variant = C61U G63C ; yeast fitness = 0.565

Form: variant = A15C A37C U59C ; yeast fitness = 0.814

Form: variant = C11U A15C G56A ; yeast fitness = 0.57

Form: variant = A37C A57G ; yeast fitness = 0.665

Form: variant = U13C C31U A70C ; yeast fitness = 0.756

Form: variant = C4G G6A U64A ; yeast fitness = 0.651

Form: variant = C5A G50C U64C ; yeast fitness = 0.73

Form: variant = C24U C55U U59A ; yeast fitness = 0.535

Form: variant = A43G U47C ; yeast fitness = 1.04

Form: variant = U47C U59G ; yeast fitness = 0.936

Form: variant = C5U C30U ; yeast fitness = 0.942

Form: variant = C29G U47A C66A ; yeast fitness = 0.532

Form: variant = G17U U19G A37G C66U A69U ; yeast fitness = 0.561

Form: variant = A15C C31U U32C ; yeast fitness = 0.5

Form: variant = G18C A40G ; yeast fitness = 0.64

Form: variant = G17A U32G ; yeast fitness = 0.572

Form: variant = A15G A42G G48A ; yeast fitness = 0.774

Form: variant = A20U U47G ; yeast fitness = 0.611

Form: variant = C11U C30G ; yeast fitness = 0.694

Form: variant = C5G G48A C49U ; yeast fitness = 0.933

Form: variant = U8A U54C ; yeast fitness = 0.657

Form: variant = C5A G50C ; yeast fitness = 0.626

Form: variant = U26A C60A ; yeast fitness = 0.787

Form: variant = A40U G67A ; yeast fitness = 0.82

Form: variant = U2C C31A A70U ; yeast fitness = 0.76

Form: variant = G44C A69G ; yeast fitness = 1.04

Form: variant = C29G G44A ; yeast fitness = 0.593

Form: variant = G6A C31G A65G ; yeast fitness = 0.547

Form: variant = G12A A15G C24A A36U C61U G67U ; yeast fitness = 0.761

Form: variant = C5A G41A A57C C62A ; yeast fitness = 0.54

Form: variant = C24G G44A ; yeast fitness = 0.568
